molecular target: Tel-TrkC (Homo sapiens); construct: The cells also express luciferase as the viability read-out; it is not fused to the kinase; P41212 (Transcription factor ETV6); experiment: Inhibition of proliferation of Ba/F3 cells expressing Tel-TrkC (BaF3/Tel-TrkC); details: read-out: Ba/F3 Tel-TrkC IC 50
Sequence (Q16288 whole entry, the tested form may be a part): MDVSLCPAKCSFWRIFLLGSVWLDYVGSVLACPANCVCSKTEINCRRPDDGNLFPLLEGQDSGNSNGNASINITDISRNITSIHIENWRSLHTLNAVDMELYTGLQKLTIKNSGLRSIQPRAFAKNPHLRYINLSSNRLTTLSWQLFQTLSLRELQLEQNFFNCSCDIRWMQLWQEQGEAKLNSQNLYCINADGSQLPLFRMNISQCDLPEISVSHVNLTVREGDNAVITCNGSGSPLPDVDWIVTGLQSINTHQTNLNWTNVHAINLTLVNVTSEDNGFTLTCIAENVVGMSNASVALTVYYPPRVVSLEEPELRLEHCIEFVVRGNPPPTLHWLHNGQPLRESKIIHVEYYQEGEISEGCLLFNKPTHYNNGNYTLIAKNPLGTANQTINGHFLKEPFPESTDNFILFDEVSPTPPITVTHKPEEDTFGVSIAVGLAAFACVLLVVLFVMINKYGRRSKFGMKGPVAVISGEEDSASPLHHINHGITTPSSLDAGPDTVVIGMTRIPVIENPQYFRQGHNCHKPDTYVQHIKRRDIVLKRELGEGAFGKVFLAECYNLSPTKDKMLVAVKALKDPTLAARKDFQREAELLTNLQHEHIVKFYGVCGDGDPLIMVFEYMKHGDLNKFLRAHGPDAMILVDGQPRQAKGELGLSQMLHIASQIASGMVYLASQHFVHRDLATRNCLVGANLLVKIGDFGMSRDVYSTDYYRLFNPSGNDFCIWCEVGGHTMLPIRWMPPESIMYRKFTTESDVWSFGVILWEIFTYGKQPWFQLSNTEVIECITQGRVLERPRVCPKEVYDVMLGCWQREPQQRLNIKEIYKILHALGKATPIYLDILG
MEASURED_ATTRIBUTE: IC50 (nM)

>>> print(df.to_string())
                                   compound  measured_attribute  recorded_measurement
0  Fc1cccc(C2CCCN2c2ccc3ncc(-c4cncc(-n5ccnc5)n4)n3n2)c1 (centres unmarked)                IC50                    17
1  N#Cc1cc(-c2cnc3ccc(N4CCCC4c4cc(F)ccc4F)nn23)ccc1F (centres unmarked)                IC50                    21
2  CC1(c2cccc(F)c2)CCCN1c1ccc2ncc(-c3ccc(C#N)cc3)n2n1 (centres unmarked)                IC50                    33
3  N#Cc1ccc(-c2cnc3ccc(N4CCCC4c4cc(F)ccc4F)nn23)cc1OCCN1CCOCC1 (centres unmarked)                IC50                   3.1

a = C[C@H]1CN(c2ccc3ncc(-c4cccc(C#N)c4)n3n2)[C@H](c2ccccc2)C1(F)F
b = Fc1cccc(C2CCCN2c2ccc3ncc(-c4ccc5[nH]ccc5c4)n3n2)c1 (centres unmarked)
c = N#Cc1cccc(-n2cnc3ccc(N4C(=O)CSC4c4cc(F)ccc4F)nc32)c1 (centres unmarked)
d = CN1CCN(c2cnc(-c3cnc4ccc(N5CCCC5c5cccc(F)c5)nn34)cn2)CC1 (centres unmarked)
Input: # rank by IC50, ascending (min first) Give the labels in the order specified.
Output: b, a, d, c

----------
molecular target: Tel-TrkA (Homo sapiens, UniProt P04629); construct: dimerization domain of Tel (ETV6) transcription factor (fusion partner, human ETV6 P41212); expressed in transfected cells; host or cells: luciferase expressing Ba/F3 murine hematopoietic progenitor cells; the other entry of the earlier key: ETV6 (P41212, Transcription factor ETV6); assay: Inhibition of proliferation of Ba/F3 cells expressing Tel-TrkA (BaF3/Tel-TrkA, luciferase/Bright Glo readout); format: cell-based; details: read-out: Ba/F3 Tel-TrkA IC 50
Sequence (P04629 510-796 limits assumed): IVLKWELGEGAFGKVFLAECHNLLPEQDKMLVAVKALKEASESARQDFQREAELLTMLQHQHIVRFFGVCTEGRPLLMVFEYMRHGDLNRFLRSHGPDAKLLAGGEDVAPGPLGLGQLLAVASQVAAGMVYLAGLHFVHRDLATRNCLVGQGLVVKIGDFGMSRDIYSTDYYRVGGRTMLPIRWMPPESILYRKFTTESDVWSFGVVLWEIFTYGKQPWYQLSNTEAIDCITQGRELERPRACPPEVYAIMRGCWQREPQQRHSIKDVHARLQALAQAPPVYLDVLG
pIC50: −log10 of the molar value.
MEASURED_ATTRIBUTE: pIC50

// solved cases for pIC50 follow
>>> print(df.to_string())
                                   compound                      experimental_system  measured_attribute  recorded_measurement
0  CCOC(=O)N1CCC(n2c(=O)[nH]c3cc(-c4cnc5ccc(N6CCOCC6c6cccc(F)c6)nn45)ccc32)CC1 (stereo not shown)  Tel-TrkA (Homo sapiens, UniProt P04629)               pIC50                  5.66
1  CN(C)CCN(C)c1cc(-c2cnc3ccc(N4CCCC4c4cc(F)ccc4F)nn23)ccc1C#N (stereo not shown)  Tel-TrkA (Homo sapiens, UniProt P04629)               pIC50                  6.87
2  N#Cc1ccc(-c2cnc3ccc(N4CCCC4c4cc(F)ccc4F)nn23)cc1OCCN1CCOCC1 (stereo not shown)  Tel-TrkA (Homo sapiens, UniProt P04629)               pIC50                  8.19
3  CN1CCC(Oc2cc(-c3cnc4ccc(N5CCCC5c5cc(F)ccc5F)nn34)ccc2C#N)C1 (stereo not shown)  Tel-TrkA (Homo sapiens, UniProt P04629)               pIC50                  6.88
4  C[C@H]1CN(c2ccc3ncc(-c4cccc(C#N)c4)n3n2)[C@H](c2ccccc2)C1(F)F  Tel-TrkA (Homo sapiens, UniProt P04629)               pIC50                  7.92

I = Fc1cccc(C2CCCN2c2ccc3ncc(-c4cncc(Cl)n4)n3n2)c1 (stereo not shown)
II = CC(C)NC(=O)CN1CCN(c2cccc(-c3cnc4ccc(N5CCCC5c5cccc(F)c5)nn34)n2)CC1 (stereo not shown) [Table 4-Compound 32]
Input: In terms of reported pIC50, does I or II have the smaller number? Choose, then provide that item's label.
Output: I
(I: 6.70, II: 8.85)
